# credit: ChEMBL document CHEMBL4351025

# maps each entry to its MIC
- Test system: Enterococcus faecalis
- protocol_text: Antibacterial activity against Enterococcus faecalis incubated for 24 hrs by two fold serial dilution method
- Assay type: functional
All answers are understood in µg/mL, so give the number only.

Example cases with answers are listed next.
smi	MIC [µg/mL]
CCN(CC)C(=O)Cn1cc(/C=C(/C(C)=O)n2cc([N+](=O)[O-])nc2C)c2ccc(Cl)cc21	1
CC(=O)/C(=C/c1cn(CC(=O)N(C)c2ccccc2)c2ccccc12)n1cc([N+](=O)[O-])nc1C	64

Okay, now this compound:
Enquiry: Tell me the measured MIC of CC(=O)/C(=C/c1cn(CC(=O)N(C(C)C)C(C)C)c2ccccc12)n1cc([N+](=O)[O-])nc1C , please.
Return: 64

---

# maps each entry to its log10 MIC
- System: Staphylococcus aureus
- protocol_text: Antibacterial activity against Staphylococcus aureus ATCC 29213 incubated for 24 hrs by two fold serial dilution method
- Assay type: functional
- setup_conditions: ATCC 29213, 24 h
Friendly reminder: values = log10 of MIC, unit µg/mL.

Example cases with answers are listed next.
compound	log10 MIC
CC(=O)Cn1cc(/C=C(/C(C)=O)n2cc([N+](=O)[O-])nc2C)c2ccccc21	2.41
CC(=O)/C(=C/c1cn(CC(=O)N2CCCC2)c2ccccc12)n1cc([N+](=O)[O-])nc1C	1.81
CC(=O)/C(=C/c1cn(CC(=O)N(C)c2ccccc2)c2ccccc12)n1cc([N+](=O)[O-])nc1C	2.11
NC1CCN(c2c(F)cc3c(=O)c(C(=O)O)cn(C4CC4)c3c2Cl)C1 (stereo not drawn)	-0.30
CC(=O)/C(=C/c1cn(CC(=O)N2CCCCC2)c2ccccc12)n1cc([N+](=O)[O-])nc1C	2.11

Enquiry: Tell me the measured log10 MIC of CCN(CC)C(=O)Cn1cc(/C=C(/C(C)=O)n2cc([N+](=O)[O-])nc2C)c2ccccc21 , please.
Return: 2.11

Enquiry: Tell me the measured log10 MIC of C=CCn1cc(/C=C(/C(C)=O)n2cc([N+](=O)[O-])nc2C)c2ccccc21 , please.
Return: 0.60

Enquiry: Tell me the measured log10 MIC of CC(=O)/C(=C/c1cn(CC(=O)N2CCCCC2)c2cc(Cl)ccc12)n1cc([N+](=O)[O-])nc1C , please.
Return: 2.71

---

# maps each entry to its MIC
- Tested on: Escherichia coli
- protocol_text: Antibacterial activity against Escherichia coli incubated for 24 hrs by two fold serial dilution method
- Assay type: functional
All answers are understood in mg/L, so give the number only.

Example cases with answers are listed next.
smi	MIC / mg/L
CCN(CC)C(=O)Cn1cc(/C=C(/C(C)=O)n2cc([N+](=O)[O-])nc2C)c2ccccc21	16
CC(=O)/C(=C/c1cn(CC(=O)N(C2CCCCC2)C2CCCCC2)c2ccccc12)n1cc([N+](=O)[O-])nc1C	32
CC(=O)/C(=C/c1cn(CC(=O)N(C(C)C)C(C)C)c2ccccc12)n1cc([N+](=O)[O-])nc1C	64
CC(=O)/C(=C/c1cn(CC(=O)N2CCN(Cc3ccc(F)cc3)CC2)c2cc(C)ccc12)n1cc([N+](=O)[O-])nc1C	512
CCN(CC)C(=O)Cn1cc(/C=C(/C(C)=O)n2cc([N+](=O)[O-])nc2C)c2ccc(Cl)cc21	512

Enquiry: // map CC(=O)/C(=C/c1cn(CC(=O)N2CCCCC2)c2cc(C)ccc12)n1cc([N+](=O)[O-])nc1C to recorded MIC (system: Escherichia coli)
Return: 256

Enquiry: // map CCn1cc(C(=O)O)c(=O)c2cc(F)c(N3CCNCC3)cc21 to recorded MIC (system: Escherichia coli)
Return: 16

Enquiry: // map CC(=O)/C(=C/c1cn(CC(=O)N(C)c2ccccc2)c2ccccc12)n1cc([N+](=O)[O-])nc1C to recorded MIC (system: Escherichia coli)
Return: 32

---

- target_entity: Albumin (Homo sapiens, UniProt P02768)
- Sequence (P02768 whole entry): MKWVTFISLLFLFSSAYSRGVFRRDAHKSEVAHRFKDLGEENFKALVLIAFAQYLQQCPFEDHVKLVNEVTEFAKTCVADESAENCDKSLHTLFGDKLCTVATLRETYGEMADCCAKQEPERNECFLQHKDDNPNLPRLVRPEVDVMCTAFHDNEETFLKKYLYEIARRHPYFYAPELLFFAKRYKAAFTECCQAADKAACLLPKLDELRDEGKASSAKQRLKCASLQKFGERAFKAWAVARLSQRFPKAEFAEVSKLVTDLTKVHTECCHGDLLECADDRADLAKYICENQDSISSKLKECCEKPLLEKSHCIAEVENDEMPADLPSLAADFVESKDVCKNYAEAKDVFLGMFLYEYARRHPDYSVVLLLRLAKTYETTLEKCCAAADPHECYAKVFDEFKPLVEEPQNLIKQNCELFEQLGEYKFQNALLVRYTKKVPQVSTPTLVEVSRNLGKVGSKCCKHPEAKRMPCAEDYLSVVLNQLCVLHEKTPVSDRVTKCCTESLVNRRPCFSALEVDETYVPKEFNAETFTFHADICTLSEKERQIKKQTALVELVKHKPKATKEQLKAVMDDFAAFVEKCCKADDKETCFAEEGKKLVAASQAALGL
- protocol_text: Binding affinity to HSA assessed as effective quenching constant at 300 K by spectrofluorimetric based Stern-Volmer method
- Assay type: ADME
- setup_conditions: isolated protein
value_type: Kq (M⁻¹)
All answers are understood in M⁻¹, so give the number only.

Enquiry: Tell me the measured Kq of CC(=O)/C(=C/c1cn(CC(=O)N2CCCCC2)c2ccccc12)n1cc([N+](=O)[O-])nc1C , please.
Return: 79800

---

- Tested on: Pseudomonas aeruginosa
- protocol_text: Antibacterial activity against Pseudomonas aeruginosa incubated for 24 hrs by two fold serial dilution method
- Assay type: functional
We label by threshold. Values of MIC strictly beneath 100 µg/mL are t. Values of 100 µg/mL and up are f.

Enquiry: Input CC(=O)Cn1cc(/C=C(/C(C)=O)n2cc([N+](=O)[O-])nc2C)c2ccccc21 ; condition: MIC strictly below 100 µg/mL. Does it hold?
Return: f

Enquiry: Input CC(=O)/C(=C/c1cn(CC(=O)N2CCOCC2)c2ccccc12)n1cc([N+](=O)[O-])nc1C ; condition: MIC strictly below 100 µg/mL. Does it hold?
Return: f

Enquiry: Input CC(=O)/C(=C/c1cn(CC(=O)N2CCCC2)c2ccccc12)n1cc([N+](=O)[O-])nc1C ; condition: MIC strictly below 100 µg/mL. Does it hold?
Return: t

Enquiry: Input CC(=O)/C(=C/c1cn(CC(=O)N2CCCCC2)c2cc(C)ccc12)n1cc([N+](=O)[O-])nc1C ; condition: MIC strictly below 100 µg/mL. Does it hold?
Return: t

Enquiry: Input CC(=O)/C(=C/c1cn(CC(=O)N2CCCCC2)c2ccccc12)n1cc([N+](=O)[O-])nc1C ; condition: MIC strictly below 100 µg/mL. Does it hold?
Return: f

Enquiry: Input CCN(CC)C(=O)Cn1cc(/C=C(/C(C)=O)n2cc([N+](=O)[O-])nc2C)c2ccc(C)cc21 ; condition: MIC strictly below 100 µg/mL. Does it hold?
Return: f

Enquiry: Input NC1CCN(c2c(F)cc3c(=O)c(C(=O)O)cn(C4CC4)c3c2Cl)C1 (configuration not stated) [CLINAFLOXACIN] ; condition: MIC strictly below 100 µg/mL. Does it hold?
Return: t

Enquiry: Input CC(=O)/C(=C/c1cn(CC(=O)N2CCN(Cc3ccc(F)cc3)CC2)c2ccccc12)n1cc([N+](=O)[O-])nc1C ; condition: MIC strictly below 100 µg/mL. Does it hold?
Return: t

Enquiry: Input C#CCn1cc(/C=C(/C(C)=O)n2cc([N+](=O)[O-])nc2C)c2ccccc21 ; condition: MIC strictly below 100 µg/mL. Does it hold?
Return: f

Enquiry: Input CC(=O)/C(=C/c1cn(CC(=O)N(C(C)C)C(C)C)c2ccccc12)n1cc([N+](=O)[O-])nc1C ; condition: MIC strictly below 100 µg/mL. Does it hold?
Return: f

Enquiry: Input CC(=O)/C(=C/c1cn(CC(=O)N2CCN(Cc3ccc(F)cc3)CC2)c2cc(Cl)ccc12)n1cc([N+](=O)[O-])nc1C ; condition: MIC strictly below 100 µg/mL. Does it hold?
Return: f

Enquiry: Input CC(=O)/C(=C/c1cn(CC(=O)N2CCCCC2)c2cc(Cl)ccc12)n1cc([N+](=O)[O-])nc1C ; condition: MIC strictly below 100 µg/mL. Does it hold?
Return: f

Enquiry: Input CC(=O)/C(=C/c1cn(CC(=O)N2CCN(Cc3ccc(F)cc3)CC2)c2cc(C)ccc12)n1cc([N+](=O)[O-])nc1C ; condition: MIC strictly below 100 µg/mL. Does it hold?
Return: f

Enquiry: Input CCn1cc(C(=O)O)c(=O)c2cc(F)c(N3CCNCC3)cc21 [NORFLOXACIN] ; condition: MIC strictly below 100 µg/mL. Does it hold?
Return: t

Enquiry: Input CC(=O)/C(=C/c1cn(CC(=O)N(C2CCCCC2)C2CCCCC2)c2ccccc12)n1cc([N+](=O)[O-])nc1C ; condition: MIC strictly below 100 µg/mL. Does it hold?
Return: f

Enquiry: Input CC(=O)/C(=C/c1cn(CC(=O)N2CCN(Cc3ccc(Cl)cc3Cl)CC2)c2ccccc12)n1cc([N+](=O)[O-])nc1C ; condition: MIC strictly below 100 µg/mL. Does it hold?
Return: f

Enquiry: Input CC(=O)/C(=C/c1cn(CC(=O)N(C)c2ccccc2)c2ccccc12)n1cc([N+](=O)[O-])nc1C ; condition: MIC strictly below 100 µg/mL. Does it hold?
Return: f

---

- Test system: Staphylococcus aureus
- protocol_text: Antibacterial activity against Staphylococcus aureus ATCC 29213 incubated for 24 hrs by two fold serial dilution method
- Assay type: functional
- setup_conditions: ATCC 29213, 24 h
value_type: MIC
Your answer should be a number followed by the unit of measure.

compound	result
CC(=O)/C(=C/c1cn(CC(=O)N2CCCCC2)c2cc(C)ccc12)n1cc([N+](=O)[O-])nc1C	16 µg/mL

Enquiry: Tell me the measured MIC of CC(=O)/C(=C/c1cn(CC(=O)N2CCOCC2)c2ccccc12)n1cc([N+](=O)[O-])nc1C , please.
Return: 64 µg/mL

Enquiry: Tell me the measured MIC of CC(=O)/C(=C/c1cn(CC(=O)N2CCN(Cc3ccc(F)cc3)CC2)c2cc(C)ccc12)n1cc([N+](=O)[O-])nc1C , please.
Return: 512 µg/mL

Enquiry: Tell me the measured MIC of CCn1cc(C(=O)O)c(=O)c2cc(F)c(N3CCNCC3)cc21 [NORFLOXACIN] , please.
Return: 2 µg/mL
